# credit: ChEMBL document CHEMBL5291721

biological target: Alpha-2A adrenergic receptor (Homo sapiens, UniProt P08913); format: functional, cell-based; also: assay procedure not described here
Sequence (P08913 whole entry): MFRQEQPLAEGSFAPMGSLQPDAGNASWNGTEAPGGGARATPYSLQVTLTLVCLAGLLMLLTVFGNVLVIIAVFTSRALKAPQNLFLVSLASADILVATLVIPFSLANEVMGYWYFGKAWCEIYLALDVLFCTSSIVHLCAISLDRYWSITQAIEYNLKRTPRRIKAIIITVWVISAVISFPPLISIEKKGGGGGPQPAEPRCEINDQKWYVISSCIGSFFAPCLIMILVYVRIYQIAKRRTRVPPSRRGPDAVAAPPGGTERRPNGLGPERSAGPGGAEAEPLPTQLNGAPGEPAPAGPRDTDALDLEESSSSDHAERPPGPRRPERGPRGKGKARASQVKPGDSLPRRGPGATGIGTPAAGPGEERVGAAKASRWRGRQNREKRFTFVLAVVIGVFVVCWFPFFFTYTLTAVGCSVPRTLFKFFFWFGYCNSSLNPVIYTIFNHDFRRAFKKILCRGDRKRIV
REPORTED_ENDPOINT: AC50

COMPOUND	TESTED_TARGET	AC50
O=C(CCCN1CCC(n2c(O)nc3ccccc32)CC1)c1ccc(F)cc1 [BENPERIDOL]	Alpha-2A adrenergic receptor (Homo sapiens, UniProt P08913)	> 30 µM

For COc1ccc(Cc2nccc3cc(OC)c(OC)cc23)cc1OC [PAPAVERINE] the compound record lists AC50 as > 30 µM

For CCN(CC)CCOC(=O)c1ccc(N)cc1Cl [CHLOROPROCAINE] the compound record lists AC50 as > 30 µM

For CCOC(=O)NNc1ccc(N(CC)CC(C)O)nn1 (configuration not stated) [CADRALAZINE] the compound record lists AC50 as > 30 µM

For O=C1Nc2ccc(Cl)cc2C(c2ccccc2)=NC1O (configuration not stated) [OXAZEPAM] the compound record lists AC50 as > 10 µM

For Nc1ccn([C@@H]2O[C@H](CO)[C@@H](O)C2(F)F)c(=O)n1 [GEMCITABINE] the compound record lists AC50 as > 10 µM

###

# Lookup of reported AC50 keyed by entry
Target protein (sequence): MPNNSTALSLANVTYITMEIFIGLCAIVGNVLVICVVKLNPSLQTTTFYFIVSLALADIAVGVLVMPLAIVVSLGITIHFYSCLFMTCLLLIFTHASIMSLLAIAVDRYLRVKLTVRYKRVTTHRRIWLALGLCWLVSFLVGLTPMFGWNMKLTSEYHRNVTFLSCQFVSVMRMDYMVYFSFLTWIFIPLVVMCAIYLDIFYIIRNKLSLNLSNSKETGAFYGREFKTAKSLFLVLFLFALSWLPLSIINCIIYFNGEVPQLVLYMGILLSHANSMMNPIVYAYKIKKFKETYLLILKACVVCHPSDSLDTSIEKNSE
State just the number; it will be interpreted in µM.

MOLECULE	UNITS_SYMBOL	ASSAY_VALUE
CCCCCCCCNC(C)C(O)c1ccc(SC(C)C)cc1 (centres undefined)	µM	9.82

Next:
For CCCCCCCCCCCCCCCCCC(=O)NCCCC[C@H](NC(=O)CC[C@@H](NC(=O)[C@H](C)NC(=O)[C@@H](C)O[C@H]1[C@H](O)[C@@H](CO)OC(O)[C@@H]1NC(C)=O)C(N)=O)C(=O)O (some centres undefined) [ROMURTIDE] the molecule record lists AC50 as 2.2

###

Target protein (sequence): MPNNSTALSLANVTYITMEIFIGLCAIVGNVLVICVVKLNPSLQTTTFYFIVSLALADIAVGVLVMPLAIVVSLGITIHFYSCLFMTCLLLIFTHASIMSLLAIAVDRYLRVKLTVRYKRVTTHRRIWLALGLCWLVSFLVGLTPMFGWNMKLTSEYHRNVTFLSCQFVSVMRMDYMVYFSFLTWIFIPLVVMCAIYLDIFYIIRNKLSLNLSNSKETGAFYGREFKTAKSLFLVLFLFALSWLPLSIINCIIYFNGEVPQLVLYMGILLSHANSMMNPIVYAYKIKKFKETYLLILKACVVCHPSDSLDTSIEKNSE
# Lookup of reported AC50 keyed by entry

Completed entries (count: 4):
COMPOUND	REPORTED_ENDPOINT	ASSAY_VALUE
CCCCCCOC(=O)CCC(=O)CN [HEXAMINOLEVULINATE]	AC50	> 30 µM
C[C@]1(COc2ccc(N3CCC(Oc4ccc(OC(F)(F)F)cc4)CC3)cc2)Cn2cc([N+](=O)[O-])nc2O1	AC50	> 30 µM
NS(=O)(=O)c1cc(C(=O)O)cc(N2CCCC2)c1Oc1ccccc1 [PIRETANIDE]	AC50	> 30 µM
CNCCCC1c2ccccc2C=Cc2ccccc21 [PROTRIPTYLINE]	AC50	> 10 µM

Next:
For O=C1CN2Cc3c(ccc(Cl)c3Cl)N=C2N1 [ANAGRELIDE] the compound record lists AC50 as > 30 µM

###

# Lookup of reported AC50 keyed by entry
biological target: Muscarinic acetylcholine receptor M2 (Homo sapiens, UniProt P08172); assay type: functional, cell-based; also: assay procedure not described here
Sequence (P08172 whole entry): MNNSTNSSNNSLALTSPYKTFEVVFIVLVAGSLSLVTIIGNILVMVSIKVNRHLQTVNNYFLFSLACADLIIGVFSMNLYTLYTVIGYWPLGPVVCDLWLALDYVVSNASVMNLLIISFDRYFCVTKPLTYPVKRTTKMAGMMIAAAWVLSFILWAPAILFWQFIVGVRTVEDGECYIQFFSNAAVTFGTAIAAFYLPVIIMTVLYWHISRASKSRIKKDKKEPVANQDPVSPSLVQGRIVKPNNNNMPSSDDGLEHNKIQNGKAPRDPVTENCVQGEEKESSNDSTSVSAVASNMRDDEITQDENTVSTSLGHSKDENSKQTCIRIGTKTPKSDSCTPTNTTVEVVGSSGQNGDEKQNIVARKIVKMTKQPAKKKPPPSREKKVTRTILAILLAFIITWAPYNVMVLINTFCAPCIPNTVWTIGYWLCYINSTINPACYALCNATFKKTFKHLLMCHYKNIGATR

Completed entries (count: 6):
MOLECULE	AC50
COc1c(O[C@@H]2O[C@H](CO)[C@@H](O)[C@H](O)[C@H]2O)cc2c(c1OC)-c1ccc(SC)c(=O)cc1[C@@H](NC(C)=O)CC2 [THIOCOLCHICOSIDE]	> 30 µM
COc1cc(OC)c(C(=O)CCCN2CCCC2)c(OC)c1 [BUFLOMEDIL]	> 30 µM
CCOC(=O)NNc1ccc(N(CC)CC(C)O)nn1 (stereo unspecified) [CADRALAZINE]	> 30 µM
CC[C@H]1OC(=O)[C@H](C)[C@@H](O[C@H]2C[C@@](C)(OC)[C@@H](O)[C@H](C)O2)[C@H](C)[C@@H](O[C@@H]2O[C@H](C)C[C@H](N(C)C)[C@H]2O)[C@](C)(OC)C[C@@H](C)C(=O)[C@H](C)[C@@H](O)[C@]1(C)O [CLARITHROMYCIN]	> 30 µM
Cc1cnc(NC(=O)C2=C(O)c3ccccc3S(=O)(=O)N2C)s1 [MELOXICAM]	> 10 µM
Cc1cccc(N(C)C(=S)Oc2ccc3ccccc3c2)c1 [TOLNAFTATE]	> 10 µM

Next:
Known value: Muscarinic acetylcholine receptor M2 (Homo sapiens, UniProt P08172) AC50 of the molecule CCCCC[C@H](O)/C=C/[C@H]1[C@H](O)CC(=O)[C@@H]1C/C=C\CCCC(=O)O [DINOPROSTONE] equals > 30 µM

###

*1 amine or outer side, *2 acyl side, *3 side chain or, on linkers, in order; H or OH if unused. Where a SMILES comes first, the peptide text is derived from it. Bridges are numbered along the chain shown (N, C = ends). [ ]: non-standard residue; d: D form. The star is where a group is joined. hTyr(3S-OH,4S-OH,3'-OSO3H) = N[C@H](C(=O)O)[C@H](O)[C@@H](O)c1ccc(O)c(OS(=O)(=O)O)c1; Orn(4R-OH,5R-OH) = O=C([C@H](C[C@@H](O)[C@@H](O)N[*:3])N[*:1])[*:2]; Pro(3S-OH,4S-Me) = C[C@H]1CN[C@H](C(=O)O)[C@H]1O; X1 = CCCCCOc1ccc(-c2cc(-c3ccc(C(=O)*)cc3)no2)cc1; Gln(3R-OH) = NC(=O)C[C@@H](O)[C@H](N)C(=O)O; Hyp = O=C(O)[C@@H]1C[C@@H](O)CN1
Assay system Sodium-dependent noradrenaline transporter (Homo sapiens); read-out recorded as AC50. Also: assay procedure not described here.

COMPOUND	TESTED_TARGET	AC50
C[C@@H](O)[C@H]1C(=O)N2C(C(=O)O)=C([C@H]3CCCO3)S[C@H]12 [FAROPENEM]	Sodium-dependent noradrenaline transporter (Homo sapiens)	> 30 µM
N[C@@H](Cc1c[nH]c2ccc(O)cc12)C(=O)O [OXITRIPTAN]	Sodium-dependent noradrenaline transporter (Homo sapiens)	> 30 µM
CC1(C)O[C@@H]2[C@@H](CO[C@@]3(COS(N)(=O)=O)OC(C)(C)O[C@@H]23)O1 [TOPIRAMATE]	Sodium-dependent noradrenaline transporter (Homo sapiens)	> 30 µM

Known value: Sodium-dependent noradrenaline transporter (Homo sapiens) AC50 of the compound CO[C@@]1(NC(=O)CSCC#N)C(=O)N2C(C(=O)O)=C(CSc3nnnn3C)CS[C@@H]21 [CEFMETAZOLE] equals > 30 µM

Known value: Sodium-dependent noradrenaline transporter (Homo sapiens) AC50 of the compound CCCCCOc1ccc(-c2cc(-c3ccc(C(=O)N[C@H]4C[C@@H](O)[C@@H](O)NC(=O)[C@@H]5[C@@H](O)[C@@H](C)CN5C(=O)[C@H]([C@H](O)CC(N)=O)NC(=O)[C@H]([C@H](O)[C@@H](O)c5ccc(O)c(OS(=O)(=O)O)c5)NC(=O)[C@@H]5C[C@@H](O)CN5C(=O)[C@H]([C@@H](C)O)NC4=O)cc3)no2)cc1 [MICAFUNGIN] (X1-[Orn(4R-OH,5R-OH)]T[Hyp][hTyr(3S-OH,4S-OH,3'-OSO3H)][Gln(3R-OH)][Pro(3S-OH,4S-Me)]; lactam 1-C) equals 14.6 µM

Known value: Sodium-dependent noradrenaline transporter (Homo sapiens) AC50 of the compound CCCCOc1ccc(CC(=O)NO)cc1 [BUFEXAMAC] equals > 30 µM

Known value: Sodium-dependent noradrenaline transporter (Homo sapiens) AC50 of the compound O=C1c2c(O)cccc2Cc2cccc(O)c21 [ANTHRALIN] equals > 3 µM

Known value: Sodium-dependent noradrenaline transporter (Homo sapiens) AC50 of the compound CCCCNc1ccc(C(=O)OCCN(C)C)cc1 [TETRACAINE] equals > 30 µM

Known value: Sodium-dependent noradrenaline transporter (Homo sapiens) AC50 of the compound Cc1nnc(SCC2=C(C(=O)O)N3C(=O)[C@@H](NC(=O)Cn4cc(Cl)c(=O)c(Cl)c4)[C@H]3SC2)s1 [CEFAZEDONE] equals > 30 µM

Known value: Sodium-dependent noradrenaline transporter (Homo sapiens) AC50 of the compound CCC[C@@H]1C[C@@H](C(=O)N[C@@H]([C@H]2O[C@H](SC)[C@H](OP(=O)(O)O)[C@@H](O)[C@H]2O)[C@H](C)Cl)N(C)C1 [CLINDAMYCIN PHOSPHATE] equals > 30 µM

Known value: Sodium-dependent noradrenaline transporter (Homo sapiens) AC50 of the compound CC[C@H]1OC(=O)[C@H](C)[C@@H](O[C@H]2C[C@@](C)(OC)[C@@H](O)[C@H](C)O2)[C@H](C)[C@@H](O[C@@H]2O[C@H](C)C[C@H](N(C)C)[C@H]2O)[C@](C)(OC)C[C@@H](C)C(=O)[C@H](C)[C@@H](O)[C@]1(C)O [CLARITHROMYCIN] equals > 30 µM

Known value: Sodium-dependent noradrenaline transporter (Homo sapiens) AC50 of the compound CCOC(=O)c1ccc(OC(=O)CCCCCNC(=N)N)cc1 [GABEXATE] equals 9.03 µM

Known value: Sodium-dependent noradrenaline transporter (Homo sapiens) AC50 of the compound CC(=O)Oc1ccccc1C(=O)Nc1ncc([N+](=O)[O-])s1 [NITAZOXANIDE] equals > 30 µM

Known value: Sodium-dependent noradrenaline transporter (Homo sapiens) AC50 of the compound C=C1c2c(Cl)ccc(O)c2C(=O)C2=C(O)[C@]3(O)C(=O)C(C(N)=O)=C(O)[C@@H](N(C)C)[C@@H]3[C@@H](O)[C@H]12 [MECLOCYCLINE] equals > 30 µM

Known value: Sodium-dependent noradrenaline transporter (Homo sapiens) AC50 of the compound Cc1cc2c(OCC(O)CNC(C)C)cccc2[nH]1 (stereo not drawn) [MEPINDOLOL] equals 5.31 µM

Known value: Sodium-dependent noradrenaline transporter (Homo sapiens) AC50 of the compound O=C(NC(Cc1cc(=O)[nH]c2ccccc12)C(=O)O)c1ccc(Cl)cc1 (stereo not drawn) [REBAMIPIDE] equals > 30 µM

Known value: Sodium-dependent noradrenaline transporter (Homo sapiens) AC50 of the compound O=C(O)CC(O)(CC(=O)O)C(=O)O [CITRIC ACID] equals > 30 µM

Known value: Sodium-dependent noradrenaline transporter (Homo sapiens) AC50 of the compound CCCCCCCCNC(C)C(O)c1ccc(SC(C)C)cc1 (stereo not drawn) [SULOCTIDIL] equals 1.39 µM

Known value: Sodium-dependent noradrenaline transporter (Homo sapiens) AC50 of the compound CC1(C)O[C@@H]2C[C@H]3[C@@H]4CCC5=CC(=O)CC[C@]5(C)[C@@]4(F)[C@@H](O)C[C@]3(C)[C@]2(C(=O)CCl)O1 [HALCINONIDE] equals > 30 µM

Known value: Sodium-dependent noradrenaline transporter (Homo sapiens) AC50 of the compound CCn1cc(C(=O)O)c(=O)c2cc(F)c(N3CCNCC3)nc21 [ENOXACIN] equals > 30 µM

Known value: Sodium-dependent noradrenaline transporter (Homo sapiens) AC50 of the compound N[C@@H](CC(=O)O)C(=O)O [ASPARTIC ACID] equals > 30 µM
